# System: HL-60
# protocol-text: NCI tumour cell line growth inhibition, 48 h
The source made the active and inactive calls. Rule as the data show it: active = GI50 up to about 1.1 µM and inactive = higher.
A correct response names exactly one class from True (active), False (inactive)

Recorded results for 3 molecules are shown here.
Which outcome did this test record for the molecule CC(CO)(Nc1ccc([N+](=O)[O-])cc1[N+](=O)[O-])C(=O)O (stereo not given) ?
False

Which outcome did this test record for the molecule COc1cc2c3c(n(C)c(=O)c2cc1OC)-c1cc2c(cc1/C3=C/CCCCBr)OCO2 ?
False

Which outcome did this test record for the molecule C#C[C@@H](CCCC)OC(=O)N[C@H](C)c1ccccc1 ?
False

Further cases:
Which outcome did this test record for the molecule CC(C)C1=CC23CCC4C(C)(C(=O)O)CCCC4(C)C2CC1C1C(=O)N(c2ccc(N4C(=O)C5C6CC7C8(C)CCCC(C)(C(=O)O)C8CCC7(C=C6C(C)C)C5C4=O)cc2)C(=O)C13 (stereo not given) ?
False

Which outcome did this test record for the molecule N#CC(NC12CC3CC(CC(C3)C1)C2)c1ccccc1C(F)(F)F (stereo not given) ?
False

Which outcome did this test record for the molecule CC(C)Cc1cc2c(cc1O)CCC1C2CC[C@@]2(C)C1CC[C@@H]2O (stereo not given in full) ?
False

Which outcome did this test record for the molecule CC(C)N(C(=O)C12CC3CC(CC(C3)C1)C2)C(C)C ?
False

Which outcome did this test record for the molecule CC1=C2C(=O)c3ccccc3C(=O)[C@H]2[C@H]2CCO[C@H]2O1 ?
False

Which outcome did this test record for the molecule FC(F)(F)C1(c2ccccc2)SCc2nc3ccccc3n21 (stereo not given) ?
False

Which outcome did this test record for the molecule CCCCCCCCCCCCCC(=O)O.O=CC(O)C(O)C(OC1OC(CO)C(O)C(O)C1O)C(O)CO (stereo not given) ?
False

Which outcome did this test record for the molecule O=C(CCn1ccnc1[N+](=O)[O-])NCCCn1ccnc1[N+](=O)[O-] ?
False

Which outcome did this test record for the molecule CC1(C)O[C@H]([C@H](O)c2nnc3ccc(Cl)nn23)[C@@H]([C@H]2COC(C)(C)O2)O1 ?
False

Which outcome did this test record for the molecule COc1ccc(OC)c(CNc2ccc(C(=O)O)cc2)c1 ?
False

Which outcome did this test record for the molecule COc1cc(O)c2c(c1O)C(=O)c1cc(C)ncc1C2=O ?
False

* * *

The entries below come with measured GI50 values attached.
# System: EKVX
# protocol-text: NCI tumour cell line growth inhibition, 48 h
The source made the active and inactive calls. No stated cut-off is given here; in the data, active = GI50 up to about 1.1 µM and inactive = higher.

Briefly, GI50 measured for C=C(C(=O)OC)[C@H]1CC/C(C)=C/CC[C@@](C)(O)C=CC[C@@]2(C)O[C@@H]2C1 : 20.8 µM (inactive)

Briefly, GI50 measured for CCCCCCCCCCCC(=O)OCCOCCOCCOCCOCCOCc1ccccc1 : > 100 µM (inactive)

Briefly, GI50 measured for COc1cc2oc(=O)cc(C)c2cc1O : > 100 µM (inactive)

Briefly, GI50 measured for O=C1/C(=C\c2cccc(Oc3ccccc3)c2)SC(c2ccccc2)N1c1cccc([N+](=O)[O-])c1 (stereo not given) : > 100 µM (inactive)

Briefly, GI50 measured for Cc1nnc2c3nnc(C)n3c3ccccc3n12 : > 100 µM (inactive)

Briefly, GI50 measured for O=C1CN(c2ccc(Cl)cc2)C(=O)CN1NCNN1CC(=O)N(c2ccc(Cl)cc2)CC1=O : > 100 µM (inactive)

Briefly, GI50 measured for O=C1/C(=N\NC(=S)NC2CCCCC2)c2cc([N+](=O)[O-])ccc2N1CN1CCOCC1 : 3.13 µM (inactive)

Briefly, GI50 measured for Cc1c(Cl)ccc2c1NC(=O)C2(O)C(C(=O)c1ccccc1)c1ccccc1 (stereo not given) : 43.3 µM (inactive)

Briefly, GI50 measured for O=S1(=O)CS(=O)(=O)OCCCO1 : > 100 µM (inactive)

Further cases:
Briefly, GI50 measured for O=C(CSc1nc2ccccc2c2ccccc12)c1ccccc1 : > 100 µM (inactive)

From: ChEMBL document CHEMBL1201862
